# target: CD3ε homodimer protein (human, UniProt P07766 23-126, limits assumed)
# Sequence (P07766 23-126 limits assumed): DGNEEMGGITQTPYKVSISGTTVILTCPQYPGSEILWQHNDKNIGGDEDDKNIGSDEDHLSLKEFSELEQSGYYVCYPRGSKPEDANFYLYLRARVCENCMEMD
# assayMethodText: SPR, immobilized CD3ε homodimer;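 further: biacore T200 surface plasmon resonance at 25 °C, antibody variants flowed as analytes over amine-coupled CD3ε homodimer on a CM4 chip, variant binding amount divided by that of GLS3000 antibody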
Readings of ratio of amounts bound (vs GLS3000) for the listed binders
Give the value as a plain number.

Examples from the recorded data:
[
  {
    "binder": "GLS3000 V51E (antibody, name in Kabat numbering, V domains shown, one-arm format as m2) VH: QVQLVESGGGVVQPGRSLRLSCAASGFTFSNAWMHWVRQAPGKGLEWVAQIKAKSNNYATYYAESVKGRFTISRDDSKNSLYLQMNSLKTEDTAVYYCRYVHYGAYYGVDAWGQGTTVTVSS VL: DIVMTQSPLSLPVTPGEPASISCRSSQSLVHSNRNTYLHWYQQKPGQAPRLLIYKESNRFSGVPDRFSGSGSGTDFTLKISRVEAEDVGVYYCGQGTQVPYTFGQGTKLEIK",
    "ratio of amounts bound (vs GLS3000)": 0.64
  },
  {
    "binder": "GLS3000 V51G (antibody, name in Kabat numbering, V domains shown, one-arm format as m2) VH: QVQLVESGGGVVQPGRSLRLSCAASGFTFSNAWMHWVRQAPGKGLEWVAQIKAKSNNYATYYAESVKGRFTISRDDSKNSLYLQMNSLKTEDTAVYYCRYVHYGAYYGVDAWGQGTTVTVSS VL: DIVMTQSPLSLPVTPGEPASISCRSSQSLVHSNRNTYLHWYQQKPGQAPRLLIYKGSNRFSGVPDRFSGSGSGTDFTLKISRVEAEDVGVYYCGQGTQVPYTFGQGTKLEIK",
    "ratio of amounts bound (vs GLS3000)": 0.84
  }
]

Proceed to the following item.
Sure, the documented ratio of amounts bound (vs GLS3000) for GLS3000 S52P (antibody, name in Kabat numbering, V domains shown, one-arm format as m2) VH: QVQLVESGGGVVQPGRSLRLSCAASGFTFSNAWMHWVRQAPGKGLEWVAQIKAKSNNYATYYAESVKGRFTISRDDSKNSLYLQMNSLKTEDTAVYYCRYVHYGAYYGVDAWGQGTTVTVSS VL: DIVMTQSPLSLPVTPGEPASISCRSSQSLVHSNRNTYLHWYQQKPGQAPRLLIYKVPNRFSGVPDRFSGSGSGTDFTLKISRVEAEDVGVYYCGQGTQVPYTFGQGTKLEIK is 0.33
